Where do these numbers come from? They come from patent US4891374A.

system: Adjuvant arthritis; assay: Adjuvant arthritis (Pearson): reduction in increase in paw volume; type: in vivo, male rats of the Wistar-Lewis strain; settings: 50 mg/kg p.o. once daily day 1 to day 5; reduction in increase in paw volume vs control
Counter-ions that a name gives are not always drawn.
Quantity Kind: Adjuvant Arthritis (% inhibition at 50 mg/kg p.o.) (%)
Could you give me the number in %? Just the number is fine.

Form field Adjuvant Arthritis (% inhibition at 50 mg/kg p.o.) for item CC(C)(C)c1cc(C2=NN3CCN=C3SC2)cc(C(C)(C)C)c1O [Example 1, hydrochloride] on Adjuvant arthritis: 62

Form field Adjuvant Arthritis (% inhibition at 50 mg/kg p.o.) for item COc1ccc2cc(C(C)C(=O)O)ccc2c1 (stereo not drawn) [naproxen, 2-(6-methoxy2-naphthyl)-propionic acid, reference compound] on Adjuvant arthritis: 55

Form field Adjuvant Arthritis (% inhibition at 50 mg/kg p.o.) for item CC(C)(C)c1cc(C2=NN3C(=O)CN=C3SC2)cc(C(C)(C)C)c1O [Example 7, hydrobromide] on Adjuvant arthritis: 59

----------
System: Adjuvant arthritis
Experiment: Adjuvant arthritis (Pearson): reduction in increase in paw volume
Assay type: in vivo, male rats of the Wistar-Lewis strain
Conditions: 50 mg/kg p.o. once daily day 1 to day 5; reduction in increase in paw volume vs control
Protocol: The investigations were carried out using the method of Pearson (Arthrit. Rheum. 2 (1959), p. 44). The experimental animals used were male rats of the Wistar-Lewis strain having a body weight between 130 and 200 g. Compounds to be tested were administered orally (p.o.) once daily from day 1 to day 5 of the experiment in doses of 50 mg per kg of body weight. The animals in a control group were given only the vehicle. Each preparation group and the control group contained 8 animals. […]
Counter-ions that a name gives are not always drawn.
Quantity Kind: Adjuvant Arthritis (% inhibition at 50 mg/kg p.o.) (%)
Could you give me the number in %? Just the number is fine.

Record CC1Sc2nncn2N=C1c1cc(C(C)(C)C)c(O)c(C(C)(C)C)c1 (stereo not shown) , field Adjuvant Arthritis (% inhibition at 50 mg/kg p.o.): 56

Record CC(C)(C)c1cc(C2=Nn3ccnc3SC2)cc(C(C)(C)C)c1O [Example 4, hydrochloride] , field Adjuvant Arthritis (% inhibition at 50 mg/kg p.o.): 69

Record CC1SC2=NCCN2N=C1c1cc(C(C)(C)C)c(O)c(C(C)(C)C)c1 (stereo not shown) [Example 2, hydrochloride] , field Adjuvant Arthritis (% inhibition at 50 mg/kg p.o.): 63

Record CC(C)(C)c1cc(C2=NN3CC(=O)N=C3SC2)cc(C(C)(C)C)c1O [Example 6, hydrobromide] , field Adjuvant Arthritis (% inhibition at 50 mg/kg p.o.): 73
